Target: ERK2 enzyme (Homo sapiens (Human))
Sequence (P28482 whole entry): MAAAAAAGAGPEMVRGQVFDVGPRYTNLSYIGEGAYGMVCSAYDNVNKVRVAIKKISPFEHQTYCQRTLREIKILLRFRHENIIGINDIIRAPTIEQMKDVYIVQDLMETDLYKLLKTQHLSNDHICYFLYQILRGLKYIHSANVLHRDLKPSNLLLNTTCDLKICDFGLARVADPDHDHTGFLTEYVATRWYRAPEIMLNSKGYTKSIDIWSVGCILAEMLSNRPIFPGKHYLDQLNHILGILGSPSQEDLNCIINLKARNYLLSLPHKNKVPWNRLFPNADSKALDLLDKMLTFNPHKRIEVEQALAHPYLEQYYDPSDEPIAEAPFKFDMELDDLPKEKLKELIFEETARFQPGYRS
Experiment: Inhibition assay of ERK (Z'-LYTE kinase assay, Ser/Thr 3 peptide substrate)
Type: biochemical
Settings: In vitro ERK2 enzyme, 100 μM ATP
property-name: IC50

Consider the worked cases shown below.
COc1ncc(-c2n[nH]c3cc4c(cc23)CN(Cc2ccc(F)cc2F)C(=O)N4)cn1	< 50 nM
Cc1cc(-c2n[nH]c3cc4c(cc23)CN([C@@H]2CCCN(Cc3cccc(F)c3)C2)C(=O)N4)ccn1	< 50 nM

Enquiry: Retrieve IC50 measured for Cc1cc(-c2n[nH]c3cc4c(cc23)CN([C@@H]2CCCNC2)C(=O)N4)ccn1 and print it.
Return: 50 to 250 nM

Enquiry: Retrieve IC50 measured for Cc1cc(-c2n[nH]c3cc4c(cc23)CN([C@@H]2CCCN(Cc3cc(F)ccc3F)C2)C(=O)N4)ccn1 and print it.
Return: < 50 nM
